Cited source for all entries: PubChem BioAssay (NCI)

Readings of TGI for the listed compounds
Tested on: COLO 205 colon
experiment.summary: NCI tumour cell line growth inhibition, 48 h
measured.endpoint: TGI (µM)

                                    compound  measured_target  scale_unit  modifier_sign  recorded_value
 0                          O=C(O)CSSCC(=O)O   COLO 205 colon          µM              >             100
 1  CC1CC2C(=O)NC(=O)C2c2[nH]c3ccccc3c21 (stereo not drawn)   COLO 205 colon          µM              >             100
 2  CCOC(=O)c1cc(Sc2ccc(N)c(C(=O)OCC)c2)ccc1N   COLO 205 colon          µM              >             100
 3  COc1cccc(OC(=O)c2ccccc2Nc2ccnc(C(F)(F)F)c2)c1   COLO 205 colon          µM              =            5.13
 4  Cc1ccc2c(c1)C1(C)OC(CC(N)C1O)O2 (stereo not drawn)   COLO 205 colon          µM              >             100
 5  COc1cc2cc(Oc3ccc(NC(=O)Nc4ccc(Cl)c(C(F)(F)F)c4)cc3)c(C)nc2cc1OCCN1CCCCC1   COLO 205 colon          µM              =            3.33
 6  COc1cc(OCc2ccc3nc(-c4ccccc4)c(N)nc3c2)cc(OC)c1OC   COLO 205 colon          µM              =            30.1
 7  COC(=O)N1C[C@@]2(C=CC3(CC2)OCCO3)c2ccccc21   COLO 205 colon          µM              >             100
 8  N#CC1(C#N)C2CCCCC23OC(=N)C1(C#N)C(c1ccco1)O3 (stereo not drawn)   COLO 205 colon          µM              =            31.6
 9  O=C1CSC2(CC(/C=C/c3ccccc3O)=NN2c2cccc(S(=O)(=O)O)c2)N1c1nc2ccccc2s1 (stereo not drawn)   COLO 205 colon          µM              >             100
10  CC12CCC(=O)C(O1)C1C(=O)c3cc4ccccc4cc3C(=O)C12 (stereo not drawn)   COLO 205 colon          µM              =            47.1
11  CCc1c(C)[nH]c(/C=C2\N=C(c3ccc[nH]3)C=C2OC)c1C   COLO 205 colon          µM              =            1.88
12  COc1cccc(C2=C(c3cn(C)c4ccccc34)C(=O)NC2=O)c1   COLO 205 colon          µM              >              25
13   O=c1n(/N=C/c2ccccc2)c(=O)n2n1C1C=CC2CC1   COLO 205 colon          µM              >             100
14       Cc1c2cnccc2c(C)c2c1[nH]c1ccc(O)cc12   COLO 205 colon          µM              >              10
15  CSc1nc2ccccc2c(=O)n1/N=C1\C(=O)N(CN2CCCCC2)c2ccc(Cl)cc21   COLO 205 colon          µM              =              36
16  CC1=C2CCCC2C/C(=N/Nc2ccc([N+](=O)[O-])cc2[N+](=O)[O-])CC1 (stereo not drawn)   COLO 205 colon          µM              >             100
17  O=S(=O)([O-])[O-].[Fe+2].c1ccc(/C(=N\Nc2ccccn2)c2ccccn2)cc1   COLO 205 colon          µM              =            2.15
18  O=C1C(Cl)=C(N/N=c2/[nH][nH]/c(=N/NC3=C(Cl)C(=O)c4ccccc4C3=O)c3ccccc23)C(=O)c2ccccc21   COLO 205 colon          µM              =            32.9
19  CC12CCC=CC1CCC1C2CCC2(C)C(c3ccc(=O)oc3)CCC12O (stereo not drawn)   COLO 205 colon          µM              =            1.56
20  COc1ccc(C(=O)/C=C/c2ccc(Cl)cc2)cc1S(=O)(=O)Nc1c(N)nc(SC)[nH]c1=O   COLO 205 colon          µM              =            3.42
21  CC1=C(C(=O)OCc2ccccc2)C(c2ccc3c(c2)OCO3)n2c(nc3ccccc32)N1 (stereo not drawn)   COLO 205 colon          µM              >             100
22  C/C(CN1C(=O)c2ccccc2C1=O)=N\NS(=O)(=O)c1ccc(Br)cc1   COLO 205 colon          µM              >             100
23  COC(=O)CCC(=O)N1Cc2cc(C)ccc2N(C(=O)CCC(=O)OC)Cc2cc(C)ccc21   COLO 205 colon          µM              >             100
24  COc1ccc(C2c3cc4c(cc3C(O)C3CCC(=O)N23)OCO4)cc1 (stereo not drawn)   COLO 205 colon          µM              >             100
25  c1ccc(Nc2nnc(CSc3nc(-c4ccccc4)c(-c4ccccc4)[nH]3)s2)cc1   COLO 205 colon          µM              =            25.6
26                   CCc1nnc(CC)n1NCCCC(=O)O   COLO 205 colon          µM              >             100
27  CCCC(O)[C@@H](O)c1ccc2c(c1O)C(=O)c1c(OC)cccc1C2=O (stereo partly drawn)   COLO 205 colon          µM              =            44.8
28  CCOC(=O)c1nc2ccc(C(F)(F)F)cc2nc1NCc1ccc(Cl)c(Cl)c1   COLO 205 colon          µM              >             100
29  O=S(=O)(c1ccc(NC(=S)NCc2cccnc2)cc1)N1CCCCC1   COLO 205 colon          µM              >             100
30  CN(C)CCNC(=O)c1cccn2c(=O)c3cc4ccccc4cc3nc12   COLO 205 colon          µM              =           0.246
31  CC(=O)[O][Pb]([O]C(C)=O)([c]1ccccc1)[c]1ccccc1   COLO 205 colon          µM              =              15
32                        CC#COP(=O)(OCC)OCC   COLO 205 colon          µM              >             100
33  Oc1ccccc1/C=N/Nc1nnc2c3ccccc3c3ccccc3c2n1   COLO 205 colon          µM              >             100
34  CN(C)CCCNC(=O)c1cc(NC(=O)CCNS(=O)(=O)c2ccc3c(c2)C(=O)c2ccccc2C3=O)cn1C   COLO 205 colon          µM              >             100
35  Fc1cc(C2=C[C@H](c3ccc(Cl)cc3)NC(=S)N2)c(Cl)cc1Cl   COLO 205 colon          µM              >             100
36  CCCN1C(=O)/C(=c2\sc3n(c2=O)C2C(NN=3)N(CC)C(=O)N2CC)c2ccccc21 (stereo not drawn)   COLO 205 colon          µM              =            10.4
37  C=C1C(=O)O[C@H]2C[C@@H](C)[C@@H]3CC(=O)OC[C@@]3(C)CC12 (stereo partly drawn)   COLO 205 colon          µM              =            60.7
